# test_summary: Water retention property test 1
# Format: physicochemical
# conditions: 80 wt % aqueous solution; unsealed, 24 hours at 40° C. and 25% RH
Would you mind telling me the reported Rate of reduction in moisture of each entry?
Numbers only; they are read as %.

Exam item: What value of measured Rate of reduction in moisture is listed for CC(CO)(CO)CO [Compound C53] ?
Marked response: 4.4

Exam item: I'd like to know its Rate of reduction in moisture. The compound in question is CC(CO)(CO)CO [Compound C52]
Marked response: 7.1

Exam item: Which value of Rate of reduction in moisture has been reported for C[N+](C)(C)CCO.O=C1OC(C(O)CO)C([O-])=C1O (centres unmarked) [Compound C57] in the records?
Marked response: 5.0

Exam item: Requested field: Rate of reduction in moisture. Item: OCC(O)CO [Compound A52, glycerin, reference compound]
Marked response: 10.0

Exam item: # get_value(readout='Rate of reduction in moisture', item= CC(O)C(=O)O.NCCCCCC(=O)O [Compound C61] )
Marked response: 9.9

Exam item: Give the measured Rate of reduction in moisture of CC(CO)(CO)CO [Compound C55] .
Marked response: 7.9

Exam item: Query: Rate of reduction in moisture; subject: CC(CO)(CO)CO [Compound C50]
Marked response: 4.4

Exam item: Data request, read-out Rate of reduction in moisture, for CC(CO)(CO)CO [Compound C51]
Marked response: 4.5

Exam item: Can you look up the measured Rate of reduction in moisture of C[N+](C)(C)CC(O)CC(=O)O.O=C1O[C@H]([C@@H](O)CO)C([O-])=C1O [Compound C58] for me?
Marked response: 4.1

Exam item: Given CC(O)C(=O)O.NCCCC(=O)O [Compound C60] , state its recorded Rate of reduction in moisture.
Marked response: 9.9

Exam item: What value of Rate of reduction in moisture has been reported for the following compound? CCCCn1cc[n+](C)c1.F[B-](F)(F)F [Compound C63, reference compound]
Marked response: 41.7

###

# test_summary: Stability of ascorbic acid-based compound (coloration)
# Type: physicochemical
# conditions: 33 wt % aqueous solution
recorded_endpoint: Appearance (Visual evaluation) After 7 days Room temperature

- molecule: "O=C1O[C@H]([C@@H](O)CO)C([O-])=C1OP(=O)([O-])[O-].[Na+].[Na+].[Na+] [Compound C100, sodium ascorbyl phosphate]"
  endpoint_result: "○~Δ"
- molecule: "O=C1O[C@H]([C@@H](O)CO)C(O)=C1O"
  endpoint_result: "x"
- molecule: "NC(CO)(CO)CO.O=C1OC(C(O)CO)C(O)=C1O (stereo not shown)"
  endpoint_result: "○"
- molecule: "O=C1O[C@H]([C@@H](O)CO)C(O)=C1O[C@H]1O[C@H](CO)[C@@H](O)[C@H](O)[C@H]1O [Compound C99, ascorbic acid glucoside]"
  endpoint_result: "○"

###

# test_summary: Water retention property test 2 (hydrates)
# Assay type: physicochemical
# conditions: hydrate (anhydrides: aqueous solution at mono- to trihydrate concentration); unsealed, 24 hours at 40° C. and 25% RH
Classes are defined on Rate of reduction in moisture with ranges lower = under 3%, middle = from 3% up to 5%, upper = 5% and over

Exam item: Assign a category based on measured Rate of reduction in moisture for CC(C)(N)CO.O=C1OC(C(O)CO)C(O)=C1O (stereo not drawn) and give only the class name.
Marked response: lower

Exam item: For this compound, which bin applies? CC(O)C(=O)O.OCCNCCO
Marked response: middle

Exam item: assign CC(O)C(=O)[O-].OCC[N+](CCO)(CCO)CCO to the correct category.
Marked response: middle

Exam item: Sort CC(O)C(=O)O.OCCN(CCO)CCO into one of the categories.
Marked response: middle

Exam item: # bin lookup: classify CS(=O)(=O)[O-].C[N+](C)(C)CCO by its Rate of reduction in moisture
Marked response: lower

Exam item: Just checking, what class would you give NCCO.O=C1O[C@H]([C@@H](O)CO)C(O)=C1O here?
Marked response: lower

Exam item: Class? Entry: CS(=O)(=O)O.NC(CO)CO
Marked response: lower

Exam item: Which class does Br.CCC(N)(CO)CO fall in?
Marked response: upper

Exam item: Bin? CC(O)C(=O)O.N (stereo not drawn)
Marked response: middle

Exam item: Band assignment needed for NC(CO)CO.O=C(O)CC(O)(CC(=O)O)C(=O)O please.
Marked response: upper

Exam item: Which bin, given its Rate of reduction in moisture, does O=C1O[C@H]([C@@H](O)CO)C(O)=C1O.OCCNCCO occupy?
Marked response: middle

Exam item: Classify this compound: OCC(O)CO [Comparative example C10]
Marked response: upper

Exam item: assign CC(=O)OCC[N+](C)(C)C.O=C1O[C@H]([C@@H](O)CO)C([O-])=C1O to the correct category.
Marked response: lower

Exam item: Assign a category based on measured Rate of reduction in moisture for CC(O)C(=O)O.NCCO (stereo not drawn) and give only the class name.
Marked response: lower

Exam item: Class (by measured Rate of reduction in moisture) for CC(C)(N)CO.CC(O)C(=O)O
Marked response: lower

Exam item: Into which category would you place CC(O)C(=O)O.NC(CO)(CO)CO ?
Marked response: lower

Exam item: Category of NC(CO)CO.O=C(O)CCC(=O)O , please.
Marked response: upper

Exam item: Band assignment needed for C[N+](C)(C)CCO.O=C([O-])CO please.
Marked response: lower

###

# test_summary: Water retention property test 2 (hydrates)
# Assay type: physicochemical
# conditions: hydrate (anhydrides: aqueous solution at mono- to trihydrate concentration); before the test
recorded_endpoint: Pre-test moisture rate (%)
Write down the numeric answer in % and omit the unit.

Exam item: Query: Pre-test moisture rate; subject: CC(O)C(=O)O.NC(CO)CO (stereo not drawn)
Marked response: 16.6

Exam item: Which Pre-test moisture rate value is on record for OCC(O)CO [Comparative example C10] ?
Marked response: 16.4

Exam item: Tell me the measured Pre-test moisture rate of NCCO.O=C1O[C@H]([C@@H](O)CO)C(O)=C1O , please.
Marked response: 13.2

Exam item: Field request: Pre-test moisture rate | item: NC(CO)CO.O=C(O)CC(O)(CC(=O)O)C(=O)O
Marked response: 11.3

Exam item: Fill in the blank: the reported Pre-test moisture rate of CCC(N)(CO)CO.O=C1O[C@H]([C@@H](O)CO)C(O)=C1O is ____.
Marked response: 10.9

Exam item: Name the recorded Pre-test moisture rate for F[B-](F)(F)F.[NH3+]C(CO)CO .
Marked response: 16.8

Exam item: Need Pre-test moisture rate, item CCCCn1cc[n+](C)c1.F[B-](F)(F)F [Comparative example C8]
Marked response: 13.8

Exam item: Consider the molecule shown here: C[N+](C)(CCO)CC(O)C[N+](C)(C)CCO.[Cl-].[Cl-] What is its recorded Pre-test moisture rate?
Marked response: 10.5

Exam item: I am curious: what Pre-test moisture rate value has been reported for NC(CO)CO.O=C(O)CO ?
Marked response: 17.7

Exam item: Pre-test moisture rate lookup needed for CC(=O)O.NC(CO)CO , thanks.
Marked response: 19.3

Exam item: Pre-test moisture rate lookup needed for CC(O)C(=O)[O-].CCCC[N+](CCCC)(CCCC)CCCC [Working example C100] , thanks.
Marked response: 5.2

Exam item: Pre-test moisture rate lookup needed for NC(CO)(CO)CO.O=C1OC(C(O)CO)C(O)=C1O (stereo not drawn) , thanks.
Marked response: 10.8

Exam item: Fill in the blank: the reported Pre-test moisture rate of CC(O)C(=O)O.NCCO (stereo not drawn) is ____.
Marked response: 10.7

Exam item: Item under review: O=C(O)CCC(=O)O.OCCNCCO . Reported Pre-test moisture rate?
Marked response: 13.9

Exam item: # get_value(readout='Pre-test moisture rate', item= OCC(O)CO [Comparative example C11] )
Marked response: 28.1

Exam item: Recorded Pre-test moisture rate for CCC(N)(CO)CO.CS(=O)(=O)O , please?
Marked response: 14.3

Exam item: # Pre-test moisture rate lookup, item NC(CO)(CO)CO.O=C(O)CC(O)(CC(=O)O)C(=O)O
Marked response: 10.3

Exam item: Which Pre-test moisture rate is reported for this molecule? CC(=O)[O-].C[N+](C)(C)CCO
Marked response: 9.9

Exam item: What value of measured Pre-test moisture rate is listed for CC(O)C(=O)O.NCC(O)C(O)C(O)C(O)CO (stereo not drawn) ?
Marked response: 11.7

Exam item: Entry CC(O)C(=O)O.OCCNCCO : reported Pre-test moisture rate = ?
Marked response: 15.6

Exam item: May I ask what Pre-test moisture rate has been recorded for O=C1OC(C(O)CO)C(O)=C1O.OCCN(CCO)CCO (stereo not drawn) ?
Marked response: 10.0

###

# test_summary: Water retention property test 1
# Format: physicochemical
# conditions: 80 wt % aqueous solution; unsealed, 24 hours at 40° C. and 25% RH
Provide the recorded Post-test moisture rate for the entries that follow.

Exam item: If you can, please state the reported Post-test moisture rate value of CC(O)C(=O)O.NCCCCCC(=O)O [Compound C61] .
Marked response: 18.1%

Exam item: For CC(=O)OCC[N+](C)(C)C.O=C1O[C@H]([C@@H](O)CO)C([O-])=C1O [Compound C59] , what is its reported Post-test moisture rate?
Marked response: 19.3%

Exam item: GET /values?readout=Post-test moisture rate&item= C[N+](C)(C)CC(O)CC(=O)O.O=C1O[C@H]([C@@H](O)CO)C([O-])=C1O [Compound C58]
Marked response: 19.2%

Exam item: Returns the measured Post-test moisture rate for the input molecule. Input: CC(CO)(CO)CO [Compound C54]
Marked response: 18.8%

Exam item: Requested field: Post-test moisture rate. Item: OCC(O)CO [Compound A52, glycerin, reference compound]
Marked response: 18.0%

Where these numbers come from: patent US20250090437A1
